MEASURED_TARGET: human CA9 (carbonic anhydrase IX) (human, UniProt Q16790 38-414)
PROTOCOL_DESCRIPTION: BIAcore T100, mAb captured on anti-human IgG, antigen as analyte, 1:1 model; mAb purified by protein A (ProA)
Listed here: items and their measured kon.

>  <BINDER>
zu155D5-3 (antibody, human IgG1, kappa, V domains shown, Humanized 155D5, human IgG1 kappa; Tested both protein A purified and decapped; also called zu155D5-CXXA) VH: QVQLVESGGGLVQPGGSLRLSCSASGFSLNSYAMIWVRQAPGKGLEYIGFITTGGTTYYADSVKGRFTISRDNSKNTLYLQMNSLRAEDTAVYYCARDRVKSYDDYGDLDAFEPWGQGTLVTVSS VL: DIQMTQSPSTLSASVGDRVTITCQASQSISSYLAWYQQKPGKAPKLLIYYASTLASGVPSRFSGSGSGTEFTLTISSLQCDDAATYYCLGVYGYSFDDGIAFGGGTKVEIKR

>  <kon, M⁻¹ s⁻¹>
727000

$$$$
>  <BINDER>
zu155D5-5 (antibody, human IgG1, kappa, V domains shown, Humanized 155D5, human IgG1 kappa; Tested both protein A purified and decapped) VH: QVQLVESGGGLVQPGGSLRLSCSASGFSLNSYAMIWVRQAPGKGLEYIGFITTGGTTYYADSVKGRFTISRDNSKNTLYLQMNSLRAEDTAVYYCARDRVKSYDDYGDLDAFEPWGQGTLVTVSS VL: DIQMTQSPSTLSASVGDRVTITCQASQSISSYLAWYQQKPGKAPKLLIYYASTLASGVPSRFKGSGSGTEFTLTITGVQCDDAATYYCLGVYGYSFDDGIAFGGGTKVEIKR

>  <kon, M⁻¹ s⁻¹>
587000

$$$$
>  <BINDER>
zu155D5-2 (antibody, human IgG1, kappa, V domains shown, Humanized 155D5, human IgG1 kappa; Tested both protein A purified and decapped) VH: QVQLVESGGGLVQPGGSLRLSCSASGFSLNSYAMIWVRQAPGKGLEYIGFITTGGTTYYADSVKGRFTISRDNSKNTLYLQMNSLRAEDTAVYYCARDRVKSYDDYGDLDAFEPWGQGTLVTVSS VL: DIQMTQSPSTLSASVGDRVTITCQASQSISSYLAWYQQKPGKAPKLLIYYASTLASGVPSRFSGSGSGTEFTLTITGVQCDDFATYYCLGVYGYSFDDGIAFGGGTKVEIKR

>  <kon, M⁻¹ s⁻¹>
663000

$$$$
